Below are molecules with their IC50 as measured on UniProt:Q15118.
property_label: IC50 (nM)

Worked examples, 3 molecules total:
Cc1nccnc1-c1ccc(N(Cc2ccccc2)C(=O)c2ccc(O)cc2O)cc1F :: 1000
COc1ccccc1-c1ccc(N(Cc2cccnc2)C(=O)c2ccc(O)cc2O)cc1 :: 1000
Cc1cc2ccccc2nc1-c1ccc(N(Cc2ccc(CN(C)C)cc2)C(=O)c2ccc(O)cc2O)cc1 :: 100

(a) Cc1ncc(C)c(-c2ccc(N(Cc3cccnc3)C(=O)c3ccc(O)cc3O)cc2)n1
(b) CCc1nccnc1-c1ccc(N(Cc2ccsc2)C(=O)c2ccc(O)cc2O)cc1
(c) Cc1cc2cccc(C)c2nc1-c1ccc(N(Cc2cccnc2)C(=O)c2ccc(O)cc2O)cc1
Ask: Sort the 3 molecules by IC50; largest first, smallest last. // list labels; follow requested order
Reply: c, b, a

###

# system: [Pyruvate dehydrogenase (acetyl-transferring)] kinase isozyme 1, mitochondrial (Homo sapiens)
pIC50: −log10 of the molar value.
property_label: pIC50

Examples with their reported pIC50 follow.
Cc1cnc(-c2ccc(N(Cc3cccnc3)C(=O)c3ccc(O)cc3O)cc2)c(C)n1 :: 8.00
CN(Cc1ccc2nccnc2c1)C(=O)c1ccc(N(Cc2ccccc2)C(=O)c2ccc(O)cc2O)cc1 :: 8.00
O=C(c1ccc(O)cc1O)N(Cc1ccccc1)c1ccc(-c2nc3ccc(Cl)cc3cc2CO)cc1 :: 6.00
CN(Cc1ccc2ccccc2c1)C(=O)c1ccc(N(Cc2ccsc2)C(=O)c2ccc(O)cc2O)cc1 :: 6.00
O=C(NC1CC1)c1ccc(N(Cc2cccnc2)C(=O)c2ccc(O)cc2O)cc1 :: 6.00

(a) CN(Cc1cccc2ncccc12)C(=O)c1ccc(N(Cc2ccccc2)C(=O)c2ccc(O)cc2O)cc1
(b) O=C(c1ccc(O)cc1O)N(Cc1ccccc1)c1ccccc1
(c) Cc1cc(S(=O)(=O)NCc2ccncc2)cnc1-c1ccc(N(Cc2cccnc2)C(=O)c2ccc(O)cc2O)cc1
(d) CN(C)C(=O)c1ccc(N(Cc2ccn(C)n2)C(=O)c2cc(Cl)c(O)cc2O)cc1
Ask: Please list these in order of increasing pIC50. Thank you! Submit the labels in the order that the ranking request calls for.
Reply: d, b, a, c
(d: 5.00, b: 6.00, a: 7.00, c: 8.00)

###

# system: [Pyruvate dehydrogenase (acetyl-transferring)] kinase isozyme 1, mitochondrial (Homo sapiens, UniProt Q15118)
# Sequence (Q15118 whole entry): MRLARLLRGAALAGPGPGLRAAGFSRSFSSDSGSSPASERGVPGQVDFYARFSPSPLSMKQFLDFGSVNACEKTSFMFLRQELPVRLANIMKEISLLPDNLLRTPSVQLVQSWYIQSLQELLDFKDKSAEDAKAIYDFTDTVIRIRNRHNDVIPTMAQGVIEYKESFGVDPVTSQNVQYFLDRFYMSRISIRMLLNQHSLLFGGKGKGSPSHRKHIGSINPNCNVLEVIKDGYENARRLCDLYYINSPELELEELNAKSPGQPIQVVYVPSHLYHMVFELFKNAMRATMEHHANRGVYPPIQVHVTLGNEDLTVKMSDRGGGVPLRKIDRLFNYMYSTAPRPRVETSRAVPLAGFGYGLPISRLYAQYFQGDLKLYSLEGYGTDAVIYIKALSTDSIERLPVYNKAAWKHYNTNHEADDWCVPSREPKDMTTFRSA
# protocol: Binding affinity to pyruvate dehydrogenase kinase 1 (unknown origin) incubated for 90 mins by VER-00160364 probe based fluorescence polarization assay
pIC50: −log10 of the molar value.
property_label: pIC50

Worked cases, pIC50 given:
Cc1cncnc1-c1ccc(N(Cc2cccnc2)C(=O)c2ccc(O)cc2O)cc1 :: 7.00
CCOC(=O)c1nc(-c2ccc(N(Cc3ccccc3)C(=O)c3ccc(O)cc3O)cc2)c2ccccc2n1 :: 5.00
O=C(c1ccc(O)cc1O)N(Cc1ccccc1)c1ccc(-c2ncnc3ccc(Cl)cc23)cc1 :: 7.00
Cc1cc(S(=O)(=O)N2CCC(F)(F)CC2)cnc1-c1ccc(N(Cc2ccsc2)C(=O)c2ccc(O)cc2O)cc1 :: 6.00
CN(C)C(=O)c1ccc(N(CC2CCNCC2)C(=O)c2cc(Cl)c(O)cc2O)cc1 :: 7.00
Nc1nccc(-c2ccc(N(Cc3cccnc3)C(=O)c3ccc(O)cc3O)cc2)n1 :: 6.00
CCOC(=O)c1nc(C)nc(-c2ccc(N(Cc3ccccc3)C(=O)c3ccc(O)cc3O)cc2)c1C :: 5.00
Cc1cc2cc(Cl)ccc2nc1-c1ccc(N(Cc2cccnc2)C(=O)c2ccc(O)cc2O)cc1 :: 7.00

(P) CN(C)C(=O)c1ccc(N(Cc2cccc(O)c2)C(=O)c2cc(Cl)c(O)cc2O)cc1
(Q) Nc1nccc(-c2ccc(N(Cc3ccsc3)C(=O)c3ccc(O)cc3O)cc2)n1
(R) Cc1nccn1-c1ccc(-c2ccc(N(Cc3ccccc3)C(=O)c3ccc(O)cc3O)cc2)nn1
Ask: List the 3 entries from lowest pIC50 to highest pIC50 value. Form entry: labels listed in requested order.
Reply: Q, P, R

(I) Cc1cnc(NC(C)C)nc1-c1ccc(N(Cc2ccccc2)C(=O)c2ccc(O)cc2O)cc1
(II) Cc1cnc(-c2cccnc2)nc1-c1ccc(N(Cc2ccccc2)C(=O)c2ccc(O)cc2O)cc1
(III) Cc1cc(S(=O)(=O)N2CCOCC2)cnc1-c1ccc(N(Cc2ccsc2)C(=O)c2ccc(O)cc2O)cc1
Ask: Which order do these items take when sorted by rising pIC50? List them. Write the labels out in the order the request specifies.
Reply: I, II, III
(I: 5.00, II: 6.00, III: 7.00)

(P) COc1cnc(Cl)nc1-c1ccc(N(Cc2ccccc2)C(=O)c2ccc(O)cc2O)cc1C
(Q) CN(Cc1ccc2ccccc2c1)C(=O)c1ccc(N(Cc2ccccc2)C(=O)c2ccc(O)cc2O)cc1
(R) Cc1ccnnc1-c1ccc(N(Cc2cccnc2)C(=O)c2ccc(O)cc2O)cc1
(S) Cc1cnc(Cl)nc1-c1ccc(N(Cc2ccccc2)C(=O)c2cc(Cl)c(O)cc2O)cc1
Ask: Ordering: ascending pIC50. // rank by listing labels in the order requested
Reply: Q, P, R, S

###

# system: [Pyruvate dehydrogenase (acetyl-transferring)] kinase isozyme 1, mitochondrial (Homo sapiens)
property_label: IC50 (nM)

Cc1cc(C(=O)N(Cc2ccccc2)c2ccc(-c3nc(Cl)ncc3C)cc2)c(O)cc1O :: 100
O=C(c1ccc(O)cc1O)N(Cc1ccccc1)c1ccc(-c2nc(-c3ccccc3)nc3ccccc23)cc1 :: 100

(I) Cc1ccc(S(N)(=O)=O)nc1-c1ccc(N(Cc2ccsc2)C(=O)c2ccc(O)cc2O)cc1
(II) Cn1ccnc1-c1ccc(N(Cc2ccccc2)C(=O)c2ccc(O)cc2O)cc1
Ask: Please compare: I and II . Report which one has the smaller IC50 value. Use the label to indicate which entry you chose.
Reply: I

###

# system: [Pyruvate dehydrogenase (acetyl-transferring)] kinase isozyme 1, mitochondrial (Homo sapiens)
property_label: IC50 (nM)

(A) CN(C)C(=O)c1ccc(N(Cc2cccnc2)C(=O)c2cc(Cl)c(O)cc2O)cc1
(B) Cc1cc2ccc(F)cc2nc1-c1ccc(N(Cc2cccnc2)C(=O)c2ccc(O)cc2O)cc1
(C) Cc1cc2ccccc2nc1-c1ccc(N(Cc2ccccc2)C(=O)c2cc(Cl)c(O)cc2O)cc1
Ask: For the compounds shown above, give the order from largest IC50 to smallest. Response field: labels, in requested order.
Reply: C, B, A
(C: 1000 nM, B: 100 nM, A: 10 nM)

###

# system: [Pyruvate dehydrogenase (acetyl-transferring)] kinase isozyme 1, mitochondrial (Homo sapiens, UniProt Q15118)
pIC50: −log10 of the molar value.
property_label: pIC50

Cc1cnc(C#N)nc1-c1ccc(N(Cc2ccccc2)C(=O)c2ccc(O)cc2O)cc1 :: 7.00
CCCc1cncnc1-c1ccc(N(Cc2cccnc2)C(=O)c2ccc(O)cc2O)cc1 :: 7.00
Cc1cc(S(=O)(=O)N2CCCCC2)cnc1-c1ccc(N(Cc2ccccc2)C(=O)c2ccc(O)cc2O)cc1 :: 7.00

###

# system: [Pyruvate dehydrogenase (acetyl-transferring)] kinase isozyme 1, mitochondrial (Homo sapiens)
pIC50: −log10 of the molar value.
property_label: pIC50

These recorded examples may help you get a feel for the data.
CCNc1cc(-c2ccc(N(Cc3ccsc3)C(=O)c3ccc(O)cc3O)cc2)ncn1 :: 5.00
CSc1nc(-c2ccc(N(Cc3ccccc3)C(=O)c3ccc(O)cc3O)cc2)c2cc[nH]c2n1 :: 6.00
Cc1sc2ncnc(-c3ccc(N(Cc4ccsc4)C(=O)c4ccc(O)cc4O)cc3)c2c1C :: 6.00

(I) Cc1cn(-c2ccc(-c3ccc(N(Cc4ccccc4)C(=O)c4ccc(O)cc4O)cc3)nn2)cn1
(II) Cc1cc2ccccc2nc1-c1ccc(N(Cc2ccc(-c3ccccc3)cc2)C(=O)c2ccc(O)cc2O)cc1
(III) N#Cc1cc(Cl)nc(-c2ccc(N(Cc3ccsc3)C(=O)c3ccc(O)cc3O)cc2)c1
Ask: Order field: pIC50 | Direction: descending (largest first) I'd appreciate it if you listed the labels in the requested order.
Reply: II, I, III
